Below, each of the binders is paired with its reported pEC50 value.
Biological target: T1, recombinant human soluble gpNMB (recombinant human gpNMB-FLAG-His) (human, UniProt Q14956 23-498)
T1 sequence: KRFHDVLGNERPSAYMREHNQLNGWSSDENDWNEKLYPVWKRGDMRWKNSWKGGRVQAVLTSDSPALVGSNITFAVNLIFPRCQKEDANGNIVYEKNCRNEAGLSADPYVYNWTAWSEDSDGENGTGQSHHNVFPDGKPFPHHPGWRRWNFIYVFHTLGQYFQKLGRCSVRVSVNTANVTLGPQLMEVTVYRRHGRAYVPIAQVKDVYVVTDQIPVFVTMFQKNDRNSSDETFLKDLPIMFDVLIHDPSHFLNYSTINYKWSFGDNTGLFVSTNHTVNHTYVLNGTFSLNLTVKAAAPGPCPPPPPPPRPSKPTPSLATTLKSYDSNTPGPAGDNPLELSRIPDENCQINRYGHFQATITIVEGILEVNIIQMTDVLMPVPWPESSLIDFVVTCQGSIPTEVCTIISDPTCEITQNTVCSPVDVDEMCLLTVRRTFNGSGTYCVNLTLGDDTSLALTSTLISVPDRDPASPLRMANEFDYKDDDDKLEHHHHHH
Assay: antigen ELISA
# pEC50 = -log10(concentration in molar units)

# example entries with known answers
binder="hGPN18-2_H2L3 VH Y108A (antibody, V domains shown) VH: QVQLVQSGPGLVQPTQTLTLTCSFSGFSLSTSVMGVGWIRQPSGKGLEWLADIWWDDDKDYNPSLKSRLTISKDTSKNQVVLTMTNMDTVDTATYYCARTYYSNYEYAGMDYWGQGTLVTVSS VL: DIVMTQSPDSLAVSLGERATINCRSSQTIILSNGNTYLEWYQQKPGQPPKLLIYKVSNRFSGVPDRFSGSGSGTDFTLTISSLQAEDVAVYYCFQGSHVPFTFGSGTKLEIKR" assay_endpoint=pEC50 reading=8.33
binder="hGPN18-2_H2L3 VH S67A (antibody, V domains shown) VH: QVQLVQSGPGLVQPTQTLTLTCSFSGFSLSTSVMGVGWIRQPSGKGLEWLADIWWDDDKDYNPSLKARLTISKDTSKNQVVLTMTNMDTVDTATYYCARTYYSNYEYYGMDYWGQGTLVTVSS VL: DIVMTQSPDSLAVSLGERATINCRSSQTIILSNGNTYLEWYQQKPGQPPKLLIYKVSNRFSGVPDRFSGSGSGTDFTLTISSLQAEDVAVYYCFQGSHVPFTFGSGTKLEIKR" assay_endpoint=pEC50 reading=8.37
binder="hGPN18-2_H2L3 VH D111A (antibody, V domains shown) VH: QVQLVQSGPGLVQPTQTLTLTCSFSGFSLSTSVMGVGWIRQPSGKGLEWLADIWWDDDKDYNPSLKSRLTISKDTSKNQVVLTMTNMDTVDTATYYCARTYYSNYEYYGMAYWGQGTLVTVSS VL: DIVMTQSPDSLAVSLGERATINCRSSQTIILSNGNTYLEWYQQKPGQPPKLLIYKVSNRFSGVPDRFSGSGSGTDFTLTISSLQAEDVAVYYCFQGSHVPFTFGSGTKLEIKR" assay_endpoint=pEC50 reading=7.95

Below: the item to evaluate.
Query :: Provide one value: measured pEC50 of hGPN18-2_H2L3 VH S103A (antibody, V domains shown) VH: QVQLVQSGPGLVQPTQTLTLTCSFSGFSLSTSVMGVGWIRQPSGKGLEWLADIWWDDDKDYNPSLKSRLTISKDTSKNQVVLTMTNMDTVDTATYYCARTYYANYEYYGMDYWGQGTLVTVSS VL: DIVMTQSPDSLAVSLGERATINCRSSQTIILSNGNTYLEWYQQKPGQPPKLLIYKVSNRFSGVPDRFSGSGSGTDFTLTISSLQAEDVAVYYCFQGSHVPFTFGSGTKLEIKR
Result :: 8.39
